# ASSAY SYSTEM: T1, Chryseobacterium sp-62563 deamidase polypeptide (second polypeptide, deamidase domain), wildtype (Chryseobacterium sp-62563)
# T1 sequence: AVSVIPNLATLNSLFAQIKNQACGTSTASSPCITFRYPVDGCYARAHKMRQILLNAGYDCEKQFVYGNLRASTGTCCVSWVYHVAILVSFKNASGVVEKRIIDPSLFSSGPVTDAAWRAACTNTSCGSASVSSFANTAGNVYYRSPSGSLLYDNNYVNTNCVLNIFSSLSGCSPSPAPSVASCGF
# PROTOCOL DETAILS: cell-based or functional assay
VALUE KIND: Relative activity of maturated deamidase (% initial rate)
Number only, no unit.

Consider the reported Relative activity of maturated deamidase (% initial rate) for these binders:
In: Fill in the blank: the reported Relative activity of maturated deamidase (% initial rate) of Chryseobacterium sp-62563 propeptide Y94A (protein) NQDPNLVAKESNETAMKDFGKTVPVGIEKEDGKFKISFMVTAQPYEIKDSKENAAYISMIKTAVENETPIHVFLKANTNEIAKVDKATDDDIRAFKSVFTKEVKEENRK is ____.
Out: 72

In: Any idea what its Relative activity of maturated deamidase (% initial rate) is? The binder is Chryseobacterium sp-62563 propeptide F99C (protein) NQDPNLVAKESNETAMKDFGKTVPVGIEKEDGKFKISFMVTAQPYEIKDSKENAAYISMIKTAVENETPIHVFLKANTNEIAKVDKATDDDIRYFKSVCTKEVKEENRK
Out: 52

In: Reported Relative activity of maturated deamidase (% initial rate), binder Chryseobacterium sp-62563 propeptide V25H (protein) NQDPNLVAKESNETAMKDFGKTVPHGIEKEDGKFKISFMVTAQPYEIKDSKENAAYISMIKTAVENETPIHVFLKANTNEIAKVDKATDDDIRYFKSVFTKEVKEENRK : ____
Out: 76

// next entry
In: Recorded Relative activity of maturated deamidase (% initial rate) of Chryseobacterium sp-62563 propeptide T88F (protein) NQDPNLVAKESNETAMKDFGKTVPVGIEKEDGKFKISFMVTAQPYEIKDSKENAAYISMIKTAVENETPIHVFLKANTNEIAKVDKAFDDDIRYFKSVFTKEVKEENRK , please.
Out: 28

The measurements presented in this section are drawn from patent US20250215412A1.
